target: Progesterone receptor (Homo sapiens, UniProt P06401); assay: Progesterone receptor antagonist activity in human T47D breast carcinoma cell alkaline phosphatase assay
Sequence (P06401 whole entry): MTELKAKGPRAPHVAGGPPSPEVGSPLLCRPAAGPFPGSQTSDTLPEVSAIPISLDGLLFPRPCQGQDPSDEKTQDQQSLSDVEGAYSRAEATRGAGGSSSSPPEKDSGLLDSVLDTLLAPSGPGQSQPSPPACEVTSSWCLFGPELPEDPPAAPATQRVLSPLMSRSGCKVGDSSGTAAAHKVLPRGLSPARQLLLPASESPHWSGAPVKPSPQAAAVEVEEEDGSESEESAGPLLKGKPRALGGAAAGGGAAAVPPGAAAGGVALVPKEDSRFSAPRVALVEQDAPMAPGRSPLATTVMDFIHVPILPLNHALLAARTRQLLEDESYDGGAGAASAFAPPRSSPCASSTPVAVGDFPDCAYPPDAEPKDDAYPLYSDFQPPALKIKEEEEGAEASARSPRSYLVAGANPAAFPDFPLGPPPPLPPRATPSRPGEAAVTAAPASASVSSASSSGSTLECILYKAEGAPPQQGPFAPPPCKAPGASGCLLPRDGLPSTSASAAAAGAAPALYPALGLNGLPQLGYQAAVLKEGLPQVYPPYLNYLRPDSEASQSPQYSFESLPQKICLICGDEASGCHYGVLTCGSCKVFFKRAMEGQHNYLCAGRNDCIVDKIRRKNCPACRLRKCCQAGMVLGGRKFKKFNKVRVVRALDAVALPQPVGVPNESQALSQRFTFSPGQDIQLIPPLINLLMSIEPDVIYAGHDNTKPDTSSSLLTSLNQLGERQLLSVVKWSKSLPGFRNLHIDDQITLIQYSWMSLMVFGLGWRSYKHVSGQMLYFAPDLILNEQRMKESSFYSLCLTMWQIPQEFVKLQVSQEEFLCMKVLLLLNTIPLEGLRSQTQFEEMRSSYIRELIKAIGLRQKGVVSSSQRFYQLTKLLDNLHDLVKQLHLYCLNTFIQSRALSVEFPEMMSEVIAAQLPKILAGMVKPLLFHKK
Experimental endpoint: IC50 (nM)

| Given smiles | IC50 [nM] |
| --- | --- |
| N#Cc1cc(F)cc(-c2ccc3[nH]c(=O)n(-c4cccc(Cl)c4)c3c2)c1 | 3000 |
| CC(C)n1c(O)nc2ccc(-c3ccccc3F)cc21 | 412 |
| Oc1nc2ccc(-c3ccc(F)c(Cl)c3)cc2n1C1CCCC1 | 135 |
| CC(C)n1c(=O)[nH]c2ccc(-c3cc(Cl)cc(Cl)c3)cc21 | 100 |
| Cn1c(C#N)ccc1-c1ccc2[nH]c(=O)n(C3CCC3)c2c1 | 10.9 |

I. CC(C)n1c(O)nc2ccc(-c3cc(F)cc(C#N)c3)cc21
II. N#Cc1cc(F)cc(-c2ccc3[nH]c(=O)n(-c4ccccc4)c3c2)c1
III. N#Cc1cc(F)cc(-c2ccc3[nH]c(=O)n(C4CCCC4)c3c2)c1
IV. CC(C)n1c(O)nc2ccc(-c3ccc(F)cc3)cc21
V. N#Cc1cc(F)cc(-c2ccc3[nH]c(=O)n(C4CCCCC4)c3c2)c1
IN: Sort by IC50, descending. Write out the labels following the order that was asked for.
OUT: IV, II, V, I, III
(IV: 295 nM, II: 137 nM, V: 83.6 nM, I: 29.6 nM, III: 5.7 nM)

Source: ChEMBL document CHEMBL1142761
